Reference for the values: patent US12686664B2

Tested on: store-operated Ca^2+ entry in PLP-B lymphocytes
Assay name: Store-operated Ca2+ entry after thapsigargin depletion of ER Ca2+ stores in PLP-B lymphocytes
Format: cell-based
Settings: Lymphocyte, 10 μM; PLP-B lymphocytes; % of inhibition (−) or activation; DMSO control 100%; read-out: Effect on amplitude of SOCE Peak
Where a name gives a salt, the structure may show the parent alone.
Reported inhibition at 10 µM values are given for each entry in this list.

Molecule: COc1ccc(CCCOc2ccc(CCn3nc(C(F)(F)F)cc3C(F)(F)F)cc2)cc1
inhibition at 10 µM: 4.6%
--
Molecule: c1ccc(OCCCOc2ccc(CCn3cnc4ccccc43)cc2)cc1
inhibition at 10 µM: 9.4%
--
Molecule: COc1ccc(CCOc2ccc(CCn3cccn3)cc2)cc1
inhibition at 10 µM: -6.5%
--
Molecule: COc1ccc(CCOc2ccc(CCn3ccc(C(F)(F)F)n3)cc2)cc1
inhibition at 10 µM: 13%
--
Molecule: Fc1ccc(CCOc2ccc(CCn3cnc4ccccc43)cc2)cc1
inhibition at 10 µM: 7.8%
--
Molecule: c1ncn(CCc2ccc(OC3CCCCO3)cc2)n1 (stereo not drawn)
inhibition at 10 µM: 32%
--
Molecule: COc1ccc(COc2ccc(CCn3nc(C(F)(F)F)cc3C(F)(F)F)cc2)cc1
inhibition at 10 µM: 2%
--
Molecule: COc1ccc(CCOc2ccc(CCn3ncc4ccccc43)cc2)cc1
inhibition at 10 µM: -14%
--
Molecule: COc1ccc(CCOc2ccc(CCn3cnc4ccccc43)cc2)cc1
inhibition at 10 µM: 24%
--
Molecule: CS(=O)(=O)Oc1ccc(Cn2nc(C(F)(F)F)cc2C(F)(F)F)cc1
inhibition at 10 µM: 12%
--
Molecule: Oc1ccc(Cn2c(C(F)(F)F)nc3ccccc32)cc1
inhibition at 10 µM: 23%
--
Molecule: COc1ccc(CCCOc2cccc(CCn3ccc(C(F)(F)F)n3)c2)cc1
inhibition at 10 µM: 13%
--
Molecule: COc1ccc(COc2ccc(CCn3c(C(F)(F)F)nc4cc(N)ccc43)cc2)cc1
inhibition at 10 µM: 3%
--
Molecule: Oc1ccc(CCn2cncn2)cc1 [12βa, hydrochloride]
inhibition at 10 µM: 8%
--
Molecule: c1ccc(CCCOc2ccc(CCn3ncc4ccccc43)cc2)cc1
inhibition at 10 µM: -20.8%
